- System: β-catenin/Tcf-4
- Experimental Details: cells
- Assay type: cell-based
- Test Parameters: Homo sapiens, SW480, 24 h, Tcf 33.13 cells derived from SW480; 24 hours of incubation with compound; ratio Firefly/Renilla luciferase
- Protocol: Background cell line: SW480 colorectal carcinoma DNA constructs: 1) Tcf-4-Luc: Tcf-4 binding sites driving Firefly Luciferase in the pGL3 vector—to measure the activity of β-catenin/Tcf-4; […] Assay Readout: The luciferase signal was detected using a luciferase detection kit from Promega. […] Firefly substrate was then added and the resulting luminescence was immediately read on a CCD camera imaging device or a luminometer. […] Renilla luciferase was then quantified using the CCD camera or luminometer. […]
Reported Endpoint: IC50 (nM)

Record excerpt, results attached:
{"Compound": "Cc1ccc2c(NCc3ccc(NC(=O)C4CCN(Cc5ccc(Cl)c(F)c5)CC4)cc3)nc(N(C)C)nc2c1 [Example 263]", "Target Desc": "β-catenin/Tcf-4", "Unit Of Measurement": "nM", "IC50": 410}
{"Compound": "C/C=C/c1ccc2c(N[C@@H](C)c3ccc(NC(=O)c4ccc(Cl)nc4)cc3)nc(N(C)C)nc2c1 [Example 107]", "Target Desc": "β-catenin/Tcf-4", "Unit Of Measurement": "nM", "IC50": 336}
{"Compound": "C#Cc1ccc2c(NCc3ccc(NC(=O)c4ccc(F)cc4)cc3)nc(N(C)C)nc2c1 [Example 108]", "Target Desc": "β-catenin/Tcf-4", "Unit Of Measurement": "nM", "IC50": 236}
{"Compound": "Cc1ccc2c(NCc3ccc(NC(=O)C4CCN(Cc5ccccc5)CC4)cc3)nc(N3CCC3)nc2c1 [Example 134]", "Target Desc": "β-catenin/Tcf-4", "Unit Of Measurement": "nM", "IC50": 782}

(A) CNc1nc(NCc2ccc(NC(=O)c3ccc(Cl)cc3)cc2)c2cc(C(F)(F)F)ccc2n1 [Example 167]
(B) CCNc1nc(NCc2ccc(NC(=O)C3CCN(Cc4ccccc4)CC3)cc2)c2ccc(C)cc2n1 [Example 132]
Compare the recorded IC50 of A and B ; state which is larger. Write the label of whichever entry you select.
B
(B: 1140 nM, A: 751 nM)

---

- System: β-catenin/Tcf-4
- Experimental Details: cells
- Format: cell-based
- Test Parameters: Tcf 22C11 cells derived from SW480; 24 hours of incubation with compound; ratio Firefly/Renilla luciferase
- Experimental: Background cell line: SW480 colorectal carcinoma DNA constructs: 1) Tcf-4-Luc: Tcf-4 binding sites driving Firefly Luciferase in the pGL3 vector—to measure the activity of β-catenin/Tcf-4; […] Assay Readout: The luciferase signal was detected using a luciferase detection kit from Promega. […] Firefly substrate was then added and the resulting luminescence was immediately read on a CCD camera imaging device or a luminometer. […] Renilla luciferase was then quantified using the CCD camera or luminometer. […]
Reported Endpoint: IC50 (nM)

Here are 4 molecules together with their reported answers.
{"Molecule": "C=Cc1cccc(-c2ccc3nc(N(C)C)nc(NCc4ccc(C(=O)Nc5ccc(F)cc5)cc4)c3c2)c1", "Target Desc": "β-catenin/Tcf-4", "Unit Of Measurement": "nM", "IC50": 397}
{"Molecule": "Cc1ccc2nc(N(C)C)nc(NCc3ccc(NC(=O)c4ccc(F)cc4)cc3)c2c1 [Example 39]", "Target Desc": "β-catenin/Tcf-4", "Unit Of Measurement": "nM", "IC50": 428}
{"Molecule": "CN(C)c1nc(NCc2ccc(C(=O)Nc3ccc(F)cc3)cc2)c2cc(/C=C/C(C)(C)C)ccc2n1", "Target Desc": "β-catenin/Tcf-4", "Unit Of Measurement": "nM", "IC50": 556}
{"Molecule": "CN(C)c1cccc(-c2ccc3nc(N(C)C)nc(NCc4ccc(C(=O)Nc5ccc(F)cc5)cc4)c3c2)c1", "Target Desc": "β-catenin/Tcf-4", "Unit Of Measurement": "nM", "IC50": 692}

(I) CCCC/C=C/c1ccc2nc(N(C)C)nc(NCc3ccc(C(=O)Nc4ccc(F)cc4)cc3)c2c1
(II) C/C=C/c1ccc2nc(N(C)C)nc(NCc3ccc(C(=O)Nc4ccc(F)cc4)cc3)c2c1
(III) O=C(Nc1ccc(CNc2nc(N3CCCC3)nc3ccc(C(F)(F)F)cc23)cc1)c1ccc(Cl)cc1
Please order the records by their reported IC50, lowest number first. Submit the labels in the order that the ranking request calls for.
II, I, III

---

- Test system: β-catenin/Tcf-4
- Experimental Details: cells
- Format: cell-based
- Test Parameters: Homo sapiens, SW480, 24 h, Tcf 33.13 cells derived from SW480; 24 hours of incubation with compound; ratio Firefly/Renilla luciferase
Reported Endpoint: IC50

Observe how each entry below is paired with its result.
{"Molecule": "CNc1nc(NCc2ccc(NC(=O)c3cc(F)ccc3C)cc2)c2ccccc2n1 [Example 1]", "Target Desc": "β-catenin/Tcf-4", "IC50": "> 6020 nM"}
{"Molecule": "O=C(O)CNc1nc(NCc2ccc(NC(=O)c3ccc(F)cc3)cc2)c2ccccc2n1 [Example 127]", "Target Desc": "β-catenin/Tcf-4", "IC50": "> 22400 nM"}

// returns reported IC50 for input CNc1nc(NCc2ccc(NC(=O)c3ccc(F)c(C)c3)cc2)c2ccccc2n1 [Example 17]
> 6020 nM

---

- System: β-catenin/Tcf-4
- Experimental Details: cells
- Type: cell-based
- Test Parameters: Homo sapiens, SW480, 24 h, Tcf 33.13 cells derived from SW480; 24 hours of incubation with compound; ratio Firefly/Renilla luciferase
Reported Endpoint: IC50

Below are worked cases with known answers.
{"Compound": "CNc1nc(NCc2ccc(NC(=O)COCc3ccccc3)cc2)c2ccccc2n1 [Example 2]", "Reported Endpoint": "IC50", "Result": "> 2920 nM"}
{"Compound": "Cc1ccc2nc(NCc3ccco3)nc(NCc3ccc(NC(=O)C4CCN(Cc5ccccc5)CC4)cc3)c2c1 [Example 81]", "Reported Endpoint": "IC50", "Result": "> 8920 nM"}

Note: attention shifts to another entry.
Form field: reported IC50 of O=C(Nc1ccc(CNc2nc(NC3CCC3)nc3ccc(C(F)(F)F)cc23)cc1)c1ccc(Cl)cc1 [Example 166]
> 9510 nM

---

- System: β-catenin/Tcf-4
- Experimental Details: cells
- Assay type: cell-based
- Test Parameters: Homo sapiens, SW480, 24 h, Tcf 33.13 cells derived from SW480; 24 hours of incubation with compound; ratio Firefly/Renilla luciferase
Reported Endpoint: IC50 (nM)

Below, 4 molecules whose answers are already recorded.
{"Smiles Str": "Cc1ccc2c(N[C@@H](C)c3ccc(NC(=O)c4ccc(F)cc4)cc3)nc(N(C)C)nc2c1", "Target Desc": "β-catenin/Tcf-4", "IC50 / nM": 1080}
{"Smiles Str": "Cc1ccc2c(NCc3ccc(NC(=O)C4CCN(Cc5ccccc5)CC4)cc3)nc(N3CCN(C)CC3)nc2c1", "Target Desc": "β-catenin/Tcf-4", "IC50 / nM": 1330}
{"Smiles Str": "C=Cc1ccc2nc(N(C)C)nc(NCc3ccc(NC(=O)C4CCN(Cc5ccccc5)CC4)cc3)c2c1", "Target Desc": "β-catenin/Tcf-4", "IC50 / nM": 287}
{"Smiles Str": "Cc1ccc2c(NCc3ccc(NC(=O)C4CCN(Cc5ccc(F)cc5Cl)CC4)cc3)nc(N(C)C)nc2c1", "Target Desc": "β-catenin/Tcf-4", "IC50 / nM": 215}

(a) CN(C)c1nc(NCc2ccc(NC(=O)c3ccc(Cl)cc3)cc2)c2cc(C(F)(F)F)ccc2n1
(b) Cc1ccc2c(NCc3ccc(NC(=O)C4CCN(Cc5ccc(Cl)cc5)CC4)cc3)nc(N(C)C)nc2c1
(c) Cc1ccc2nc(N(C)C)nc(NCc3ccc(NC(=O)c4ccc(F)c(F)c4)cc3)c2c1
Order the records, beginning with the lowest IC50 and ending with the highest. The labels, placed in the requested order, form the answer.
b, c, a

---

Structures can show the parent of a compound that is named as a salt.
Reported Endpoint: melting point (°C)

Known melting point results, listed for orientation:
{"Compound": "CNc1nc(NCc2ccc(NC(=O)C3CCN(Cc4ccccc4)CC3)cc2)c2ccc(C)cc2n1 [Example 130]", "melting point [°C]": 128}
{"Compound": "C=Cc1ccc2c(NCc3ccc(NC(=O)c4ccc(F)cc4)cc3)nc(N(C)C)nc2c1 (as salt: HCl) [Example 87]", "melting point [°C]": 145}
{"Compound": "CN(C)c1nc(NCc2ccc(NC(=O)c3ccc(F)cc3)cc2)c2ccc(CO)cc2n1 (as salt: HCl) [Example 93]", "melting point [°C]": 158}
{"Compound": "O=C(Nc1ccc(CNc2nc(Cl)nc3cc(I)ccc23)cc1)c1ccc(Cl)nc1 [Example 109]", "melting point [°C]": 315}

(a) C=Cc1ccc2c(NCc3ccc(NC(=O)C4CCN(Cc5ccccc5)CC4)cc3)nc(N(C)C)nc2c1 [Example 150]
(b) Cc1ccc2c(NCc3ccc(NC(=O)C4CCN(Cc5ccccc5)CC4)cc3)nc(N(C)C)nc2c1 (as salt: HCl) [Example 129]
(c) C/C=C/c1ccc2c(NCc3ccc(NC(=O)c4ccc(F)cc4)cc3)nc(N(C)C)nc2c1 (as salt: HCl) [Example 96]
(d) CCNc1nc(NCc2ccc(NC(=O)C3CCN(Cc4ccccc4)CC3)cc2)c2ccc(C)cc2n1 [Example 132]
// smallest melting point at index 0, largest at the end When ranking, write the labels in the order the request describes.
d, b, a, c

(a) C/C=C\c1ccc2c(NCc3ccc(NC(=O)c4ccc(F)cc4)cc3)nc(N(C)C)nc2c1 (as salt: HCl) [Example 97]
(b) C/C=C/c1ccc2c(NCc3ccc(NC(=O)C4CCN(Cc5ccccc5)CC4)cc3)nc(N(C)C)nc2c1 [Example 151]
Please indicate which item has the smaller measured melting point: a versus b // output: label of the selected item
b

(I) CC(O)c1ccc2c(NCc3ccc(NC(=O)c4ccc(F)cc4)cc3)nc(N(C)C)nc2c1 (stereo not shown) (as salt: HCl) [Example 95]
(II) CN(C)c1nc(NCc2ccc(NC(=O)c3ccc(F)cc3)cc2)c2ccc(-c3ccccc3C=O)cc2n1 (as salt: HCl) [Example 98]
Rank I against II by their melting point values and give the higher one. Your answer should be the label attached to the chosen record.
I
(I: 232 °C, II: 128 °C)

(P) C#Cc1ccc2c(NCc3ccc(NC(=O)c4ccc(F)cc4)cc3)nc(N(C)C)nc2c1 (as salt: HCl) [Example 108]
(Q) CN(C)c1nc(NCc2ccc(NC(=O)c3ccc(Cl)nc3)cc2)c2ccc(I)cc2n1 (as salt: HCl) [Example 110]
Which one would you say has the larger melting point value: P , or Q ? Label of pick, please.
P

// provenance: patent US20090004185A1
